Molecular target: human TLR9 (Homo sapiens, UniProt Q9NR96)
Sequence (Q9NR96 26-1032): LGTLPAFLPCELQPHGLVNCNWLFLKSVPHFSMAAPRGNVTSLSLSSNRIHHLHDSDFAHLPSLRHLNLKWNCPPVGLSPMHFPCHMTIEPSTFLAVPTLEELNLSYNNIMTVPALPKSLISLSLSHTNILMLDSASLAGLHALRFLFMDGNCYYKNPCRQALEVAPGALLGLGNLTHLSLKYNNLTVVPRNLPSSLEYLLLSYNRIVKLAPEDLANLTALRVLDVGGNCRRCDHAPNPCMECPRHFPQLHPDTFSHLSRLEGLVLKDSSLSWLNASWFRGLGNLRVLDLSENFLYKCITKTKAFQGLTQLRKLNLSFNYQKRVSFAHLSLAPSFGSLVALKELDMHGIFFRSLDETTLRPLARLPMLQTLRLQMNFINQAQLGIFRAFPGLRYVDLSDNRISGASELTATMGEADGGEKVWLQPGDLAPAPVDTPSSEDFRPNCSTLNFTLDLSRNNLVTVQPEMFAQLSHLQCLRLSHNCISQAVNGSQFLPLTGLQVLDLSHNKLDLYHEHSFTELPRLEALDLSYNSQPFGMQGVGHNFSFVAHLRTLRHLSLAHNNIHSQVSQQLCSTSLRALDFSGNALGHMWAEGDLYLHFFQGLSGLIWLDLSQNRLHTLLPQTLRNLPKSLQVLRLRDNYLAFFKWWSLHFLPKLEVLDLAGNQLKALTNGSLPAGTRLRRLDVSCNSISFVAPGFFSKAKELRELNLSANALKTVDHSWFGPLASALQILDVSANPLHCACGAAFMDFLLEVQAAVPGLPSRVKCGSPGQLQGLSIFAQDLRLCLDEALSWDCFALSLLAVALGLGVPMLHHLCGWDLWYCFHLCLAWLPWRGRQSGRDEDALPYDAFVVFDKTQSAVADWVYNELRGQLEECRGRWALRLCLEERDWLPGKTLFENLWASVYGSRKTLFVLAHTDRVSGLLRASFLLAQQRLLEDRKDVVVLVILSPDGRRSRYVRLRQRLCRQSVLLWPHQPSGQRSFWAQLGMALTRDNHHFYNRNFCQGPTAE
Assay: TLR9 inhibition reporter assay (HEK-Blue cells, SEAP reporter, ODN2006 stimulation)
Conditions: HEK-Blue cells overexpressing human TLR9, ODN2006 5 nM
Source text: TLR7/8/9 Inhibition Reporter Assays HEK-Blue™-cells (Invivogen) overexpressing human TLR7, TLR8 or TLR9 receptors were used for screening inhibitors of these receptors using an inducible SEAP (secreted embryonic alkaline phosphatase) reporter gene under the control of the IFN-β minimal promoter fused to five NF-κB and AP-1-binding sites. […]
Class (by IC50) -- 1: < 300 nM; 2: ≥ 300 nM and < 2000 nM; 3: ≥ 2000 nM

Below are worked cases with known answers.
CCc1c(-c2ccc(OC)c(OC)c2)[nH]c2ccc(C3CCN(C(=O)CNCC(C)O)CC3)cc12 (stereo not shown) :: 3
CCc1c(-c2ccc(OC)c(OC)c2)[nH]c2ccc(C3CCN(C(=O)CN4CCCC(C(=O)N(CC)CC)C4)CC3)cc12 (single isomer, unassigned) [Example 178] :: 3
COc1ccc(-c2[nH]c3ccc(C4CCN(C(=O)CN5CCC[C@@H](C(=O)NCC#N)C5)CC4)cc3c2C(C)C)cc1OC :: 3
COc1ccc(-c2[nH]c3ccc(C4CCN(C(=O)CN5CCC[C@H](C(=O)N6CCCC(O)C6)C5)CC4)cc3c2C(C)C)cc1OC (stereo partly shown) :: 2
CCCCCN1CCC(N2CCC(c3ccc4[nH]c(-c5ccc(OC)c(OC)c5)c(C)c4c3)CC2)CC1 :: 1
CCN(CC)C(=O)C1CCCN(CC(=O)N2CCC(c3ccc4[nH]c(-c5ccc(OC)c(OC)c5)c(C5CCOCC5)c4c3)CC2)C1 (stereo not shown) [Example 391] :: 3

Could you now consider this next molecule?
Please let me know in which category the item `COc1ccc(-c2[nH]c3ccc(C4CCN(C5CCN(CC(C)C)CC5)CC4)cc3c2Cl)cc1OC` belongs.
1
